# Method notes: blockers of ER-stress CHOP reporter expression – cell-based, unfolded protein response, luciferase reporter, primary screen (AID 2732);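 note: 0% = tunicamycin plus vehicle and 100% = wells without tunicamycin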
# Test parameters: CHO-K1 CHOP-promoter luciferase, tunicamycin-induced, 15-18 h; at 10 µM; active compounds read high
Screen size: about 220,000 compounds; about 8,200 (3.7%) were called active. This excerpt belongs to a sample that is enriched for actives.
Kindly state inhibition for each of the entries shown.
Hi! Could you send only the number? It should be in %, unit omitted.

Form field: reported inhibition of O=c1[nH]c2ccccc2n2c(-c3ccccc3)nnc12
10.4

Form field: reported inhibition of COc1ccc(CCn2c(NN=C3CCCC3)nc3c2c(=O)[nH]c(=O)n3C)cc1
-6.27

Form field: reported inhibition of CCN(c1ccc(NC(=O)COC(=O)CCc2nc3ccccc3n2-c2ccccc2)cc1)C(C)C
79

Form field: reported inhibition of CCOC(=O)/C(C#N)=C/c1ccc(OCC(=O)Nc2ccccc2)c(OC)c1
77.3

Form field: reported inhibition of O=C(Nc1ccc2c(c1)C(=O)OC2)Nc1cccc2ccccc12
90.2

Form field: reported inhibition of O=C(CCCN1C(=O)/C(=C\c2ccco2)SC1=S)Nc1cccc2ccccc12
73.2

Form field: reported inhibition of C/C(=N/Nc1nc(-c2ccccc2)c(CC(=O)O)s1)c1ccccc1
-18.2

Form field: reported inhibition of N#Cc1c(N)n(CCOC(=O)c2ccc(Cl)cc2)c2nc3ccccc3nc12
-17.1

Form field: reported inhibition of CC(C)(C)c1ccc(C(=O)NCCn2c(N)c(C#N)c3nc4ccccc4nc32)cc1
86.5

Form field: reported inhibition of O=C(Nc1ccccc1F)c1ccccc1-c1ccccc1
1.92

Form field: reported inhibition of CC(C)(C)c1ccc(NC(=O)COC(=O)CCc2nc3ccccc3c(=O)[nH]2)cc1
20

Form field: reported inhibition of Cc1cc(C)cc(NC(=O)NC2CCN(CC(=O)Nc3cccc(Cl)c3C)CC2)c1
14.5

Form field: reported inhibition of COc1ccc(OC)c(Nc2nc3ccccc3n3cnnc23)c1
24.5

Form field: reported inhibition of Cn1c(CSCC(=O)Nc2ccccc2)nnc1SCc1ccccc1
-6.7

Form field: reported inhibition of Cc1onc(NC(=O)c2ccc([N+](=O)[O-])o2)c1Br
-20.6

Form field: reported inhibition of CCCNC(=O)c1c(N)n(-c2ccc(S(N)(=O)=O)cc2)c2nc3ccccc3nc12
-1.19

Form field: reported inhibition of CC(C)Cc1nc(Cl)c(C#N)c2c1CCC2
17.9

Form field: reported inhibition of CCOC(=O)c1c(C)[nH]c(=S)c(C#N)c1-c1ccccc1
-25.2

Form field: reported inhibition of Nc1cccc(S(=O)(=O)Nc2ccc(SC(F)F)cc2)c1
6.78

Form field: reported inhibition of CCCn1c(C)cc(/C=C(\C#N)C(=O)OCC(=O)Nc2cc(OC)c(OC)c(OC)c2)c1C
9.36

Form field: reported inhibition of CCOc1cc2[nH]c(=S)n(Cc3ccc(C(=O)NCCOC)cc3)c(=O)c2cc1OCC
9.91

Form field: reported inhibition of COc1cc2[nH]c(=S)n(Cc3ccc(C)o3)c(=O)c2cc1OC
7.74

Form field: reported inhibition of O=[N+]([O-])c1cccc(C2=NCCS2)c1
5.31

Form field: reported inhibition of CCC(C)NC(=O)C1c2ccccc2Oc2ccccc21 (stereo not given)
-5.78

Form field: reported inhibition of c1ccc(-n2ncc3c(N4CCCC4)ncnc32)cc1
-22.2
